Molecular target: MMP-2 (Homo sapiens, UniProt P08253)
Construct: purchased Oncogene Research Products (Calbiochem) PF023
Sequence (P08253 110-660): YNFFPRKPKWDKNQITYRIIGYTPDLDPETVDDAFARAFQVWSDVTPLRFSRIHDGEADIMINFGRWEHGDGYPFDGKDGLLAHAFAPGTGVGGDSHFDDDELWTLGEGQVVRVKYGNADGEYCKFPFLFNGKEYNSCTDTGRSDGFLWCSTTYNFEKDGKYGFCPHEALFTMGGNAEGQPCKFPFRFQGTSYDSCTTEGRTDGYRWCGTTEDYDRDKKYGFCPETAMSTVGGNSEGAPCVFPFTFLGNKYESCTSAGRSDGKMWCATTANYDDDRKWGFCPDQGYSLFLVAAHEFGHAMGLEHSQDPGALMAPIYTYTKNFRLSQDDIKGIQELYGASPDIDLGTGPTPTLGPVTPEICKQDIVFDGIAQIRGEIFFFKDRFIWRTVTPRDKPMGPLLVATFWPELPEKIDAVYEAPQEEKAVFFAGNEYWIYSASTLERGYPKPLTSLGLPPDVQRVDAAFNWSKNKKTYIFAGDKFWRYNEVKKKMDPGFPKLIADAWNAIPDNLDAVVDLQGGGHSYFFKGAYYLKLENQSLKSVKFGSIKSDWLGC
Experiment: In-vitro fluorescence assay of MMP-2 activity
Type: biochemical
experimentalReadout: pIC50
As a rule, pIC50 stands for the negative log10 of the concentration, concentration in M.

Response field pIC50 (MMP-2 (Homo sapiens, UniProt P08253)) for item `COc1c(Br)ccc2oc(COc3ccc(-c4ccc(S(=O)(=O)N[C@H](C(=O)O)C(C)C)cc4)cc3)c(C)c12` : 6.87

###

For each of the compounds below, state its IC50.
Biological target: MMP-14 (Homo sapiens)
Construct: 20 kDa; purchased Chemicon International, Inc. CC 1041
Assay: In-vitro fluorescence assay of MMP-14 activity
Assay type: biochemical
Details: recombinant human catalytic domain of MMP-14
Reply numerically in µM, unit not repeated.

Response field IC50 (MMP-14 (Homo sapiens)) for item CC(C)[C@@H](NS(=O)(=O)c1ccc(-c2ccc(NC(=O)c3ccco3)cc2)cc1)C(=O)O [Example 172] : 8.92

Response field IC50 (MMP-14 (Homo sapiens)) for item Cc1c(C(=O)Nc2ccc(-c3ccc(S(=O)(=O)N[C@H](C(=O)O)C(C)C)cc3)cc2)oc2cccc(Oc3ccccc3)c12 [Example 155] : 8

Response field IC50 (MMP-14 (Homo sapiens)) for item Cc1cc(-c2ccc(S(=O)(=O)N[C@@H](C(=O)O)C(C)C)cc2)cc(C)c1OC(=O)c1oc2ccccc2c1C [Example 132] : 100
